experiment: CEETOX_H295R_MTT_cell_viability: Viability Assessment in the CeeTox HT-H295R MTT Assay (AID 2283718);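 as to AC50: curve fitted both ways so AC50 may mark viability loss or gain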
Active and inactive are the calls of the source. The calls were made as follows: active = hit-call score of the fitted dose curve at least 0.9, where 1 is the maximum; inactive = score below 0.9.
Measured Quantity: AC50

Sample answers from the record:
>>> value_reported("CC(Cc1ccc(C(C)(C)C)cc1)CN1C[C@@H](C)O[C@@H](C)C1 (stereo partly drawn)")
"65.8 µM (active)"
>>> value_reported("CNC(=O)Oc1cc(C)c(SC)c(C)c1")
"inactive"
>>> value_reported("CC(=O)c1cc2c(cc1C)C(C)(C)C(C)CC2(C)C (stereo not drawn)")
"inactive"
>>> value_reported("Cc1ccc(OP(=O)(Oc2ccc(C)cc2)Oc2ccc(C)cc2)cc1 (tested in a mixture with another compound)")
"inactive"

## Task For the compound Cc1cc(C)c(C2=C(OC(=O)CC(C)(C)C)C3(CCCC3)OC2=O)c(C)c1 , report AC50.
## Result 93.1 µM (active)

## Task Retrieve AC50 measured for O=CNC(N1CCN(C(NC=O)C(Cl)(Cl)Cl)CC1)C(Cl)(Cl)Cl (stereo not drawn) and print it.
## Result inactive

## Task Give the value of AC50 reported for the following: C[C@]12CC[C@H](O)C[C@H]1CC[C@@H]1[C@@H]2C[C@@H](O)[C@]2(C)[C@@H](C3=CC(=O)OC3)CC[C@]12O
## Result 2.57 µM (active)

## Task Report measured AC50; entry is Nc1ccc(Cl)c(Cl)c1
## Result inactive

## Task Identify measured AC50 corresponding to CC(C)(C)C(O)C(Oc1ccc(-c2ccccc2)cc1)n1cncn1 (stereo not drawn)
## Result inactive

## Task Identify AC50 associated with the compound C=CC(=O)OCCO
## Result 26.7 µM (active)

## Task Please report the measured AC50 for CCOP(=O)(OCC)Oc1ccc([N+](=O)[O-])cc1
## Result inactive

## Task Please report AC50 for the following compound: c1ccc(Nc2ccc3ccccc3c2)cc1
## Result inactive

## Task Kindly indicate its recorded AC50. Item: O=C=Nc1ccccc1
## Result inactive

----------
assay: CCTE_Shafer_MEA_dev_network_spike_peak: CCTE's Neural Network Formation Assay for Mean Number of Electrodes in Network Spike, Shafer Lab (AID 2284049);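 as to AC50: fitted for loss of signal meaning fewer electrodes in network spikes than DMSO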
The source made the active and inactive calls. Rule for the calls: active = hit-call score of the fitted dose curve at least 0.9, where 1 is the maximum; inactive = score below 0.9.
Measured Quantity: AC50

Illustrative cases are given below, each with its answer.
>>> value_reported("C[C@H](N)Cc1ccccc1")
"inactive"
>>> value_reported("CC1(C)[C@H](C=C(Cl)Cl)[C@H]1C(=O)OCc1c(F)c(F)cc(F)c1F")
"16.7 µM (active)"
>>> value_reported("CC1(C)[C@H](C=C(Cl)Cl)[C@@H]1C(=O)O[C@@H](C#N)c1cccc(Oc2ccccc2)c1")
"8.44 µM (active)"
>>> value_reported("C=CCN1CC[C@]23c4c5ccc(O)c4O[C@H]2C(=O)CC[C@@]3(O)[C@H]1C5")
"inactive"
>>> value_reported("c1ccc2c(c1)cc1ccc3cccc4ccc2c1c34")
"inactive"
>>> value_reported("CCOP(=O)(OCC)SCSCC")
"49.8 µM (active)"

## Task Indicate its recorded AC50; the compound in question is Brc1ccc(Oc2cc(Br)c(Br)cc2Br)c(Br)c1
## Result 10 µM (active)

## Task Provide only the value of recorded AC50 for CCC[CH2][Sn]([CH2]CCC)([CH2]CCC)[O][Sn]([CH2]CCC)([CH2]CCC)[CH2]CCC
## Result 0.0457 µM (active)

## Task Report AC50 for C#CCN(C)[C@H](C)Cc1ccccc1
## Result inactive

## Task Kindly indicate its recorded AC50. Item: CN[C@]1(c2ccccc2Cl)CCCCC1=O
## Result inactive

## Task Identify measured AC50 corresponding to CC(C)CCCCCCCOP(=O)(Oc1ccccc1)Oc1ccccc1
## Result inactive

----------
assay: CCTE_Shafer_MEA_dev_interburst_interval_mean: CCTE's Neural Network Formation Assay for Mean Interburst Interval, Shafer Lab (AID 2284046);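 also: well-mean interburst interval of bursting electrodes as AUC over four recording days; curve fitted for decrease in interburst interval relative to DMSO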
Active and inactive are the calls of the source. The calls were made as follows: active = hit-call score of the fitted dose curve at least 0.9, where 1 is the maximum; inactive = score below 0.9.
A correct response names exactly one class from active, inactive

Some solved cases for reference:
>>> qualitative_label("CCC1(c2ccccc2)C(=O)NC(=O)NC1=O")
"inactive"
>>> qualitative_label("CC(=O)[O-].CC(=O)[O-].O.O.O.[Pb+2]")
"inactive"
>>> qualitative_label("Brc1ccc(Oc2cc(Br)c(Br)cc2Br)c(Br)c1")
"inactive"
>>> qualitative_label("CCOP(=O)(O)OCC (tested in a mixture with another compound)")
"inactive"
>>> qualitative_label("CN1C(=O)CN=C(c2ccccc2)c2cc(Cl)ccc21")
"inactive"
>>> qualitative_label("CN[C@]1(c2ccccc2Cl)CCCCC1=O")
"inactive"
>>> qualitative_label("CCC[CH2][Sn]([CH2]CCC)([CH2]CCC)[O][Sn]([CH2]CCC)([CH2]CCC)[CH2]CCC")
"active"
>>> qualitative_label("CCCCC(CC)COC(=O)c1cc(Br)c(Br)c(Br)c1Br (stereo unspecified)")
"active"
>>> qualitative_label("c1ccc2cc3c(cc2c1)-c1cccc2cccc-3c12")
"inactive"
>>> qualitative_label("COC(=O)[C@H]1[C@@H](OC(=O)c2ccccc2)C[C@@H]2CC[C@H]1N2C")
"inactive"

## Task What outcome does the record of this test show for CNC(=N[N+](=O)[O-])NCC1CCOC1 (stereo unspecified) ?
## Result inactive

----------
test: CCTE_Mundy_HCI_Cortical_Synap_Neur_Matur_BPCount: CCTE's Synaptogenesis and Neurite Maturation Assay in rat cortical cells for Branch Point Count, Mundy Lab (AID 2284211)
The source made the active and inactive calls. How the source made its calls: active means hit-call score of the fitted dose curve at least 0.9, where 1 is the maximum; inactive means score below 0.9.
Returns: one label drawn from 1 (yes) for active, 0 (no) for inactive

## Task Test call for this molecule, please: CC1(C)C(C=C(Cl)c2ccc(Cl)cc2)C1C(=O)OC(C#N)c1ccc(F)c(Oc2ccccc2)c1 (stereo not given)
## Result 1 (yes)

## Task Could you please tell me the result logged for Cn1nc(C(F)(F)F)c(CS(=O)(=O)C2=NOC(C)(C)C2)c1OC(F)F in this assay?
## Result 1 (yes)

## Task For COP(=O)(OC)SCN1C(=O)c2ccccc2C1=O , what call appears in the results of this test?
## Result 0 (no)

----------
assay: CCTE_Shafer_MEA_dev_burst_duration_mean: CCTE's Neural Network Formation Assay for Mean Burst Duration, Shafer Lab (AID 2284045)
Active and inactive are the calls of the source. How the source made its calls: active means hit-call score of the fitted dose curve at least 0.9, where 1 is the maximum; inactive means score below 0.9.
Measured Quantity: outcome

>>> value_reported("CCCCC(CC)COC(=O)c1cc(Br)c(Br)c(Br)c1Br (stereo not drawn)")
"inactive"
>>> value_reported("CC(=O)[O-].CC(=O)[O-].O.O.O.[Pb+2]")
"inactive"
>>> value_reported("CCOP(=O)(OCC)SCSC(C)(C)C")
"inactive"

----------
Read-out: Intercellular Adhesion Molecule 1 (ICAM1), ICAM1 (gene 3383)
Test: BSK_KF3CT_ICAM1: BioMAP Diversity Plus: KF3CT Assay for Intercellular Adhesion Molecule 1 (ICAM1) Biomarker Activity (AID 2283067)
Conditions: primary human keratinocytes with fibroblasts; actives raise or lower the signal
Method: BSK_KF3CT is a cell-based, multiplexed-readout assay that uses keratinocytes and foreskin fibroblasts, a human skin primary cell co-culture, with measurements taken at 24 hours after chemical dosing in a 96-well plate.BSK_KF3CT_ICAM1 is an assay component measured in the BSK_KF3CT assay. It measures ICAM-1 antibody related to regulation of gene expression using ELISA technology.Data from the assay component BSK_KF3CT_ICAM1 was analyzed into 1 assay endpoint. […]
Activity calls are given as the source filed them. How the source made its calls: active means hit-call score of the fitted dose curve at least 0.9, where 1 is the maximum; inactive means score below 0.9.
Pick from active, inactive when you respond.

Take a look at these entries with their results.
>>> qualitative_label("O=[N+]([O-])O")
"inactive"
>>> qualitative_label("O=c1c2ccccc2c(=O)c2c1cc(Cl)c1[nH]c3c([nH]c12)c(Cl)cc1c(=O)c2ccccc2c(=O)c13")
"inactive"
>>> qualitative_label("CCCOC(=O)c1ccccc1C(=O)OCCC")
"inactive"
>>> qualitative_label("Cc1ccc(OP(=O)(Oc2ccc(C)cc2)Oc2ccc(C)cc2)cc1 (tested in a mixture with another compound)")
"inactive"

## Task GET /call?item= CCCC[N+](CCCC)(CCCC)CCCC returns the recorded outcome of this test.
## Result inactive

## Task What call does the record list for CCC(C)c1cc([N+](=O)[O-])cc([N+](=O)[O-])c1OC(=O)C=C(C)C (stereo unspecified) ?
## Result active

## Task For C=CC(=O)OCC(CC)CCCC (stereo unspecified) , which call appears in the assay record?
## Result inactive

## Task // outcome(item) with item = CC(C)(C)C(O)C(Oc1ccc(-c2ccccc2)cc1)n1cncn1 (stereo unspecified)
## Result inactive

----------
tested on: rat Monoamine Oxidase, MAO-A, Central (MAOAC), gene 29253; assay: NVS_ENZ_rMAOAC: NovaScreen (NVS) Enzymatic Assay for rat Monoamine Oxidase, MAO-A, Central (MAOAC) (AID 2283243);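 also: potency refers to inhibition seen as signal drop below DMSO baseline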
The source made the active and inactive calls. Rule for the calls: active = hit-call score of the fitted dose curve at least 0.9, where 1 is the maximum; inconclusive = response in the unintended direction; inactive = score below 0.9.
Measured Quantity: AC50

Answered examples (5):
>>> value_reported("c1ccc(C(O[C@@H]2CCCN(CCc3ccc4c(c3)OCO4)C2)c2ccccc2)cc1")
"20.5 µM (active)"
>>> value_reported("CCCCCCCCCC")
"inactive"
>>> value_reported("CN(C)c1ccc(C(=C2C=CC(=[N+](C)C)C=C2)c2ccc(N(C)C)cc2)cc1")
"25 µM (active)"
>>> value_reported("Nc1ccc2c(c1)C(=O)c1ccccc1C2=O")
"3.68 µM (active)"
>>> value_reported("Cc1cc(C)c(O)c(C)c1")
"inactive"

## Task Tell us which AC50 value is on record for Oc1ccc(Nc2ccccc2)cc1
## Result 17.7 µM (active)

## Task // fetch AC50 given entry CCCCc1oc2ccccc2c1C(=O)c1cc(I)c(OCCN(CC)CC)c(I)c1
## Result 18.9 µM (active)

## Task Quickly give me recorded AC50 for Cc1c2ccccc2c(C)c2c1ccc1ccccc12
## Result inactive

## Task State, in one line, measured AC50 of CCCCCCCCCCCCCC[N+](C)(C)C
## Result 31.1 µM (active)

## Task Report measured AC50; entry is Cc1c(Cl)c(=O)oc2cc(O)ccc12
## Result 12.2 µM (active)

## Task Provide only the value of recorded AC50 for CCOc1ccc(NC(N)=O)cc1
## Result 16.6 µM (active)

## Task Given CC(=O)Nc1ccc(C(=O)CCl)cc1 , respond with its AC50.
## Result 5.58 µM (active)

## Task Supply recorded AC50 for Nc1nc(N)c2nc(CNc3ccc(C(=O)N[C@@H](CCC(=O)O)C(=O)O)cc3)cnc2n1 here.
## Result 0.889 µM (active)
